Tested on: MS2 coat protein
protocol: apparent KD of MS2 coat protein; designed switch direction (-1 OFF switch, 1 ON switch): -1; higher = weaker reporter binding
test.conditions: input ligand: none
Recorded apparent KD of MS2 coat protein values for a group of sequences are listed next.
Answer with the figure and its unit, nothing else.

Here is how some sequences turned out for apparent KD of MS2 coat protein.
- UCGUUCCGUGUAGGAUAUUGGCCUUCCUUGGGCCGAGAAGGACAUGAGGAUCACCCAUGUAUGUUAUUAUCGCGCGUGGCGCAU [Design 87] (Eterna round: R96, puzzle: Exclusion NG 1): 0.0186 µM
- UACCAGGUUCAGGAUAUGCCCUCGAAGAGAGGCGCAGAAGGGAACACAUGAGGAUCACCCAUGUCAGCCGCUUC [Eternabot (Original) Solution 45] (Eterna round: R97, puzzle: Exclusion 6): 0.0171 µM

Under MS2 coat protein, report apparent KD of MS2 coat protein for UAUAUAUAGUAAGGAUAUGUAUUAAUUUCAUAAACAGAAGGUACUGACAUGAGGAUCACCCAUGUUUUAGUGUGGGCAUGUAGA [JMF's solution 85] (Eterna round: R96, puzzle: Exclusion NG 1)
0.0812 µM

----------
Test system: MS2 coat protein
protocol: apparent KD of MS2 coat protein; designed switch direction (-1 OFF switch, 1 ON switch): -1; higher = weaker reporter binding
test.conditions: Eterna round: R95; input ligand: none
metric.name: apparent KD of MS2 coat protein (µM)
Unit µM implied. Number only.

Here is how some sequences turned out for apparent KD of MS2 coat protein.
* AGUACUAACACGAAAGUGUUAGUACAAUAAGCUUGUGUUACAUGAGGAUCACCCAUGUCCUCAUAAGCUCGUCUUAU [JL-sv3-2.14 mat747 mod] (puzzle: Sensor v3, turn-off variant 2) | 0.0981
* GACAGUUCGGAGGAUAUCCAGAACUAAGAACAAGGAGAAGGCCGAACAUGAGGAUCACCCAUGUGUGUUCCCAU [Isdiorzaar] (puzzle: Exclusion 6) | 0.027
* GAAAACGCAGAGGAUAUUUCAGAUCAAAGCUGCAAAGAAGGCUGCACAUGAGGAUCACCCAUGUGGUCUUUAAA [Quesina] (puzzle: Exclusion 6) | 0.0164
* AAAGUCGGAGGAUAUACAAUAGAUGACAAUAAAGUUGGAGUACAUGAGGAUCACCCAUGUAGAAGGCCGAGAAA [Swimmer becomes a laser gun] (puzzle: Exclusion 2) | 0.0206
* AGUACUAUGCGAGCUGACUUGCGUAGUGCAGCAGGUGGAACAUGAGGAUCACCCAUGUCCUCAUUUGCUCGUCUUAA [Mat - Sensor v3 - Turn-off var 2 - D5] (puzzle: Sensor v3, turn-off variant 2) | 0.0298

Given the sequence GAAAAGGUAGGAUAUACGAAAAAAAAUGGUAGAAAAAAAACACAUGAGGAUCACCCAUGUAGAAGGACCAAAAG [salish99_ex2_r3_071] (puzzle: Exclusion 2) , write its reported apparent KD of MS2 coat protein.
0.0179

Given the sequence GGUUGGCGAGGAUAUACAUGAGGAUCACCCAUGUGAGAGAAAGAAGUGAGGAAGAAAAGUAGAAGGCGCUGACG [salish99_ex3_r3_005] (puzzle: Exclusion 3) , write its reported apparent KD of MS2 coat protein.
0.059

Given the sequence UUUAAUUUUUUUUUUUUACAAGCUUUUUGCUCGUCUUAUACAUGAGGAUCACCCAUGUAGGUGAAGGGUAAAUUAUC [JMF 81] (puzzle: Sensor v3, turn-off variant 2) , write its reported apparent KD of MS2 coat protein.
0.0158

Given the sequence UUUUUGUUUUUGUUUUUUGACAUGAGGAUCACCCAUGUCACGAGCAGAUCUUCAUGCAAGCUUUUUGCUCGUCUUAU [Sensor v3 - Turn-off variant 1 - 39] (puzzle: Sensor v3, turn-off variant 1) , write its reported apparent KD of MS2 coat protein.
0.0833
